Recorded measurements of DM-mediated increase in dissociation, one per entry
TESTED_ON: water soluble DQ2 (sDQ2) (Homo sapiens, UniProt P01909+P01920, A45G/A70V/D89A/E106A/E77G/E98D/H199R/L107V/N214S/P84L/P87L/T103K/T109R/T172A/T60S/V78E/V99I/Y58L/Y62S/Y69I/Y79F)
Type: binding
SETUP_CONDITIONS: ratio of t1/2 without DM to t1/2 with 6 μM DM; sDQ2 complexes
The reply should contain only the number, in x.

Example sequences with recorded DM-mediated increase in dissociation:
- RDSGPVSKARMATPLLMQAGAGSLVPR [CLIP1 M91A]: 19
- RDSGMATPLLMQALPM GALGAGSLVPR [CLIP2]: 28
- RDSGPVSKMRMATPLLMQAGAGSLVPR [CLIP1]: 16

Now take the following sequence into account.
-- ask Specify DM-mediated increase in dissociation for RDSGPVSKPRMATPLLMQAGAGSLVPR [CLIP1 M91P] and stop.
-- reply 11
